Kd for assorted sequences
tested-on: HLA-A*24:03
protocol-summary: IEDB peptide-MHC binding, purified MHC/direct/fluorescence; filed as Kd, often an IC50 or EC50 that approximates it; bounds were set here for any values at or beyond the usual limits of such assays
condition-info: source organism: Mammarenavirus lassaense
Provide the reading as a plain figure in nM.

AWENTVVDL 1500

Now consider the entry below.
## Input Kd for AVLPRDMVF ?
## Output 110

---

Kd for assorted sequences
tested-on: HLA-B*40:01
protocol-summary: IEDB peptide-MHC binding, purified MHC/direct/fluorescence; filed as Kd, often an IC50 or EC50 that approximates it; bounds were set here for any values at or beyond the usual limits of such assays
condition-info: source organism: Yersinia pestis Nepal516

WLWVSSSDM ≥ 20 µM

Now consider the entry below.
## Input Kd for LSEEIGLDL ?
## Output ≥ 20 µM

Cited source for all entries: the Immune Epitope Database (IEDB)
